Test system: MCF7
Experiment: Cytotoxicity against human MCF7 cells by MTT assay
Format: functional, cell-based
Recorded Metric: IC50

CN1c2ccccc2C2(C)CCN(C(=O)Cn3c[n+](Cc4ccccc4Br)c4ccccc43)C12 (centres undefined); 14 µM
Cc1n(CC(=O)N2CCC3(C)c4ccccc4N(C)C23)c2ccccc2[n+]1CC(=O)c1ccccc1 (centres undefined); > 20 µM
Cc1n(CC(=O)N2CCC3(C)c4ccccc4N(Cc4ccccc4)C23)cc[n+]1CC(=O)c1ccc(Br)cc1 (centres undefined); > 20 µM
Cc1n(CC(=O)N2CCC3(C)c4ccccc4N(Cc4ccccc4)C23)cc[n+]1CC(=O)c1ccc2ccccc2c1 (centres undefined); 5.67 µM
Cc1n(CC(=O)N2CCC3(C)c4ccccc4N(C)C23)c2ccccc2[n+]1Cc1ccccc1Br (centres undefined); 8.95 µM
CN1c2ccccc2C2(C)CCN(C(=O)Cn3c[n+](CC(=O)c4ccc(Br)cc4)c4ccccc43)C12 (centres undefined); > 20 µM
COc1ccc(C(=O)C[n+]2cn(CC(=O)N3CCC4(C)c5ccccc5N(C)C34)c3cc(C)c(C)cc32)cc1 (centres undefined); 8.15 µM
Cc1ccc(C[n+]2c(C)n(CC(=O)N3CCC4(C)c5ccccc5N(Cc5ccccc5)C34)c3ccccc32)cc1 (centres undefined); 1.98 µM
CN1c2ccccc2C2(C)CCNC12 (centres undefined); > 20 µM

----------
Assay: Cytotoxicity against human SMMC7721 cells by MTT assay
Format: functional, cell-based
Conditions: SMMC-7721
pIC50: −log10 of the molar value.
pIC50 reference
Recorded Metric: pIC50

CC12CCN(C(=O)Cn3c[n+](CC(=O)c4ccc5ccccc5c4)c4ccccc43)C1N(Cc1ccccc1)c1ccccc12 (configuration not stated); 5.12
Cc1n(CC(=O)N2CCC3(C)c4ccccc4N(Cc4ccccc4)C23)c2ccccc2[n+]1Cc1ccc(Br)cc1 (configuration not stated); 5.29
Cc1n(CC(=O)N2CCC3(C)c4ccccc4N(C)C23)c2ccccc2[n+]1Cc1ccc2ccccc2c1 (configuration not stated); 5.36
Cc1cc2c(cc1C)[n+](Cc1ccc(Br)cc1)cn2CC(=O)N1CCC2(C)c3ccccc3N(Cc3ccccc3)C12 (configuration not stated); 5.44
Cc1cc2c(cc1C)[n+](Cc1ccc3ccccc3c1)cn2CC(=O)N1CCC2(C)c3ccccc3N(Cc3ccccc3)C12 (configuration not stated); 5.64
Cc1n(CC(=O)N2CCC3(C)c4ccccc4N(Cc4ccccc4)C23)c2ccccc2[n+]1CC(=O)c1ccc(Br)cc1 (configuration not stated); 5.22
Cc1n(CC(=O)N2CCC3(C)c4ccccc4N(C)C23)c2ccccc2[n+]1Cc1ccccc1Br (configuration not stated); 4.97
CC12CCN(C(=O)Cn3c[n+](Cc4ccccc4Br)c4ccccc43)C1N(Cc1ccccc1)c1ccccc12 (configuration not stated); 5.33
Cc1n(CC(=O)N2CCC3(C)c4ccccc4N(Cc4ccccc4)C23)c2ccccc2[n+]1Cc1ccc2ccccc2c1.[Br-] (configuration not stated); 5.74
Cc1ccc(C[n+]2cn(CC(=O)N3CCC4(C)c5ccccc5N(C)C34)c3cc(C)c(C)cc32)cc1 (configuration not stated); 5.34

----------
System: A549
Test: Cytotoxicity against human A549 cells by MTT assay
Assay type: functional, cell-based
IC50 reference
Recorded Metric: IC50

Cc1ccc(C[n+]2cn(CC(=O)N3CCC4(C)c5ccccc5N(C)C34)c3cc(C)c(C)cc32)cc1 (stereo not drawn); 10.5 µM
Cc1cc2ncn(CC(=O)N3CCC4(C)c5ccccc5N(Cc5ccccc5)C34)c2cc1C (stereo not drawn); > 20 µM
Cc1n(CC(=O)N2CCC3(C)c4ccccc4N(Cc4ccccc4)C23)c2ccccc2[n+]1CC(=O)c1ccccc1 (stereo not drawn); 14.7 µM
CC12CCNC1N(Cc1ccccc1)c1ccccc12 (stereo not drawn); > 20 µM
CN1c2ccccc2C2(C)CCNC12 (stereo not drawn); > 20 µM
COc1ccc(C(=O)C[n+]2cn(CC(=O)N3CCC4(C)c5ccccc5N(C)C34)c3cc(C)c(C)cc32)cc1 (stereo not drawn); > 20 µM
Cc1ccc(C[n+]2cn(CC(=O)N3CCC4(C)c5ccccc5N(Cc5ccccc5)C34)c3ccccc32)cc1 (stereo not drawn); 6.23 µM
CC12CCN(C(=O)Cn3c[n+](CC(=O)c4ccccc4)c4ccccc43)C1N(Cc1ccccc1)c1ccccc12 (stereo not drawn); > 20 µM
Cc1n(CC(=O)N2CCC3(C)c4ccccc4N(C)C23)cc[n+]1CC(=O)c1ccc2ccccc2c1 (stereo not drawn); > 20 µM
Cc1n(CC(=O)N2CCC3(C)c4ccccc4N(C)C23)cc[n+]1CC(=O)c1ccccc1 (stereo not drawn); > 20 µM
Cc1nccn1CC(=O)N1CCC2(C)c3ccccc3N(C)C12 (stereo not drawn); > 20 µM
CN1c2ccccc2C2(C)CCN(C(=O)Cn3cc[n+](Cc4ccc(Br)cc4)c3)C12 (stereo not drawn); > 20 µM
Cc1ccc(C[n+]2ccn(CC(=O)N3CCC4(C)c5ccccc5N(C)C34)c2C)cc1 (stereo not drawn); > 20 µM
Cc1n(CC(=O)N2CCC3(C)c4ccccc4N(C)C23)cc[n+]1Cc1ccc(Br)cc1 (stereo not drawn); > 20 µM
CC12CCN(C(=O)Cn3c[n+](Cc4ccccc4Br)c4ccccc43)C1N(Cc1ccccc1)c1ccccc12 (stereo not drawn); 6.76 µM
CC12CCN(C(=O)Cn3c[n+](CC(=O)c4ccc5ccccc5c4)c4ccccc43)C1N(Cc1ccccc1)c1ccccc12 (stereo not drawn); 7.4 µM
Cc1cc2c(cc1C)[n+](Cc1ccc(Br)cc1)cn2CC(=O)N1CCC2(C)c3ccccc3N(Cc3ccccc3)C12 (stereo not drawn); 6.37 µM
Cc1ccc(C[n+]2c(C)n(CC(=O)N3CCC4(C)c5ccccc5N(C)C34)c3ccccc32)cc1 (stereo not drawn); > 20 µM

----------
System: MCF7
Assay: Cytotoxicity against human MCF7 cells by MTT assay
Format: functional, cell-based
IC50 reference
Recorded Metric: IC50 (µM)

Cc1n(CC(=O)N2CCC3(C)c4ccccc4N(Cc4ccccc4)C23)c2ccccc2[n+]1CC(=O)c1ccc(Br)cc1 (stereo not given); 7.37
Cc1n(CC(=O)N2CCC3(C)c4ccccc4N(C)C23)c2ccccc2[n+]1Cc1ccc2ccccc2c1 (stereo not given); 5.09
CN1c2ccccc2C2(C)CCN(C(=O)Cn3c[n+](Cc4ccc5ccccc5c4)c4ccccc43)C12 (stereo not given); 6.86
CC12CCN(C(=O)Cn3c[n+](Cc4ccccc4Br)c4ccccc43)C1N(Cc1ccccc1)c1ccccc12 (stereo not given); 2.23
Cc1n(CC(=O)N2CCC3(C)c4ccccc4N(Cc4ccccc4)C23)c2ccccc2[n+]1Cc1ccc(Br)cc1 (stereo not given); 2.4
COc1ccc(C(=O)C[n+]2ccn(CC(=O)N3CCC4(C)c5ccccc5N(Cc5ccccc5)C34)c2C)cc1 (stereo not given); 10.6
Cc1ccc(C[n+]2cn(CC(=O)N3CCC4(C)c5ccccc5N(Cc5ccccc5)C34)c3ccccc32)cc1 (stereo not given); 2.72
Cc1ccc(C[n+]2c(C)n(CC(=O)N3CCC4(C)c5ccccc5N(C)C34)c3ccccc32)cc1 (stereo not given); 10.8
Cc1cc2c(cc1C)[n+](Cc1ccccc1Br)cn2CC(=O)N1CCC2(C)c3ccccc3N(C)C12 (stereo not given); 6.28
Cc1ccc(C[n+]2cn(CC(=O)N3CCC4(C)c5ccccc5N(C)C34)c3cc(C)c(C)cc32)cc1 (stereo not given); 5.79
Cc1n(CC(=O)N2CCC3(C)c4ccccc4N(Cc4ccccc4)C23)c2ccccc2[n+]1CC(=O)c1ccccc1 (stereo not given); 6.35
CC12CCN(C(=O)Cn3c[n+](CC(=O)c4ccc5ccccc5c4)c4ccccc43)C1N(Cc1ccccc1)c1ccccc12 (stereo not given); 5.13
Cc1n(CC(=O)N2CCC3(C)c4ccccc4N(C)C23)c2ccccc2[n+]1CC(=O)c1ccc2ccccc2c1 (stereo not given); 9.45
COc1ccc(C(=O)C[n+]2cn(CC(=O)N3CCC4(C)c5ccccc5N(Cc5ccccc5)C34)c3cc(C)c(C)cc32)cc1 (stereo not given); 2.35
Cc1cc2c(cc1C)[n+](Cc1ccc3ccccc3c1)cn2CC(=O)N1CCC2(C)c3ccccc3N(C)C12 (stereo not given); 1.84
CC12CCN(C(=O)Cn3c[n+](CC(=O)c4ccc(Br)cc4)c4ccccc43)C1N(Cc1ccccc1)c1ccccc12 (stereo not given); 8.15
Cc1cc2c(cc1C)[n+](Cc1ccc(Br)cc1)cn2CC(=O)N1CCC2(C)c3ccccc3N(C)C12 (stereo not given); 3.08
Cc1cc2c(cc1C)[n+](CC(=O)c1ccc(Br)cc1)cn2CC(=O)N1CCC2(C)c3ccccc3N(Cc3ccccc3)C12 (stereo not given); 2.78
Cc1cc2c(cc1C)[n+](CC(=O)c1ccc3ccccc3c1)cn2CC(=O)N1CCC2(C)c3ccccc3N(C)C12 (stereo not given); 4.88

----------
System: A549
Assay: Cytotoxicity against human A549 cells by MTT assay
Assay type: functional, cell-based
pIC50: −log10 of the molar value.
Recorded Metric: pIC50

Cc1n(CC(=O)N2CCC3(C)c4ccccc4N(Cc4ccccc4)C23)c2ccccc2[n+]1Cc1ccc2ccccc2c1.[Br-] (stereo not drawn); 5.20
Cc1n(CC(=O)N2CCC3(C)c4ccccc4N(Cc4ccccc4)C23)cc[n+]1CC(=O)c1ccc2ccccc2c1 (stereo not drawn); 4.95

These measurements were taken from ChEMBL document CHEMBL3745696.
